- assay notes: chemical genetic growth profiling, strain panel (AID 1159580);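 further: tested at 20 µM; growth read once vehicle control cultures reached saturation at 30 °C; 1 = growth at the plate median or of vehicle wells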
- conditions: S. cerevisiae deletion strains, growth OD, locus YKR001C, strain vps1
About 2,000 (36%) of roughly 5,500 compounds were called active. Another 18% or so got no clear call; they are omitted. No stated cut-off is given here; in the data, active means normalized growth mostly below about 0.91 (no sharp cut-off); inconclusive means no clear call, values can overlap the other calls; inactive means mostly above about 0.92. Some of the results follow.
Outcome field: choose from TRUE (active), FALSE (inactive)

• c1ccc(CN(CC2=NCCN2)c2ccccc2)cc1 = FALSE
• CN1CCc2cc3c(cc2C1O)OCO3 (stereo not given) = FALSE
• CC1(C)C2CC[C@]3(C)C(C(=O)C=C4[C@@H]5C[C@@](C)(C(=O)O)CC[C@]5(C)CC[C@]43C)[C@@]2(C)CC[C@@H]1O (stereo not given in full) = FALSE
• CC1(C)C2CC[C@]3(C)C(C(=O)C=C4[C@H]5C[C@@](C)(C(=O)O)CC[C@]5(C)CC[C@]43C)[C@@]2(C)CC[C@@H]1O (stereo not given in full) = FALSE
• COc1ccc(CC2c3cc(OC)c(OC)cc3CCN2C)cc1OC (stereo not given) = FALSE
• Cc1cc(C(C)(C)CC(C)(C)C)ccc1OCCOCC[N+](C)(C)Cc1ccccc1 = TRUE
• NC[C@@H]1O[C@H](O[C@@H]2[C@@H](CO)OC(O[C@@H]3[C@@H](O)[C@H](N)C[C@H](N)[C@H]3OC3O[C@H](CN)[C@@H](O)[C@H](O)[C@H]3N)[C@@H]2O)[C@H](N)[C@@H](O)[C@@H]1O (stereo not given in full) = FALSE
• CN1Cc2c(ccc3c2OCO3)C2C(O)Cc3cc4c(cc3C21)OCO4 (stereo not given) = FALSE
• COc1cc(OC)c2c(c1)OC(c1ccc(OC)c(OC)c1)C(O)C2 (stereo not given) = FALSE
• COc1cccc2c1CCC1CC(=O)CCC21C (stereo not given) = FALSE

Query block: Name the outcome recorded for `COc1cc(O)c(C(=O)c2ccccc2)cc1O` in the assay.
Result block: FALSE

Query block: Which outcome was assigned to `NC(=O)c1ncn([C@@H]2O[C@H](CO)[C@@H](O)[C@H]2O)c1O` in this test?
Result block: FALSE

Query block: Lab log entry: `COc1ccc2c(c1)OC[C@@H](Cc1ccc(OC)c(OC)c1)[C@H]2O` — outcome as called in the assay?
Result block: TRUE

Query block: In this assay, the call recorded for CCc1ccc(CCOc2ccc(CC3SC(=O)NC3=O)cc2)nc1 (stereo not given) was what?
Result block: FALSE

Query block: Hi team, can someone confirm the assay call for `COC(=O)COc1cc(Cl)c(Cl)cc1Cl` ?
Result block: FALSE

Query block: // return assay outcome for `COc1ccc(C(=O)c2ccccc2)c(O)c1`
Result block: TRUE

Query block: Outcome logged for CC1(C)C2CC[C@]3(C)C(C(=O)C=C4[C@@H]5C[C@@](C)(C(=O)O)CC[C@]5(C)CC[C@]43C)[C@@]2(C)CC[C@@H]1OC(=O)CCC(=O)O (stereo not given in full) in this assay:
Result block: FALSE

---

- assay notes: chemical genetic growth profiling, strain panel (AID 1159580)
- conditions: S. cerevisiae deletion strains, growth OD, locus YPR167C, strain met16, active compounds read low
Among all 5,500 compounds or so, about 2,000 (36%) were called active. Another 18% or so got no clear call; they are omitted. The list shows a part of the results.
Consider the following compounds and their measured normalized growth readings.
Keep the answer to the number alone.

* Cc1cc(=O)c2c(O)cc(O)c(C)c2o1 | 0.979
* CNC1(C)C2CCC(C2)C1(C)C (stereo unspecified) | 0.983
* Cc1cc(=O)c2c(O)c(C)c(O)cc2o1 | 0.957
* CC1(C)C2CC[C@]3(C)C(C(=O)C=C4[C@@H]5C[C@@](C)(C(=O)O)CC[C@]5(C)CC[C@]43C)[C@@]2(C)CC[C@@H]1O (stereo partly specified) | 1.02

Query block: Tell me the measured normalized growth of `Cc1c(O)cc(O)c2c(=O)c(-c3ccc(O)cc3)coc12` , please.
Result block: 1.03

Query block: Look up normalized growth for this compound: `COc1c(O)cc2oc3cc(O)c(CC=C(C)C)c(O)c3c(=O)c2c1CC=C(C)C`
Result block: 0.786

---

- assay notes: chemical genetic growth profiling, strain panel (AID 1159580);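 further: tested at 20 µM; growth read once vehicle control cultures reached saturation at 30 °C; 1 = growth at the plate median or of vehicle wells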
- conditions: S. cerevisiae deletion strains, growth OD, locus YHR200W, strain rpn10, active compounds read low
Hit rate of the full screen: of about 5,500 compounds, about 2,000 (36%) were called active. Not shown: some 18% with an inconclusive outcome. Some of the results follow.
Output Yes for records whose normalized growth is lower than 1, No for records at or above 1.

Worked examples follow.
• O=C(O)C1CC([C@@H]2CCCCN2)CN2CCCCC12 (stereo partly drawn) = Yes
• CC1(C)C2CC[C@]3(C)C(C(=O)C=C4[C@@H]5C[C@@](C)(C(=O)O)CC[C@]5(C)CC[C@]43C)[C@@]2(C)CC[C@@H]1O (stereo partly drawn) = No

Okay, now this compound:
Query block: # TODO verify normalized growth < 1 strictly for this compound: CC1(C)C2CC[C@]3(C)C(C(=O)C=C4[C@@H]5C[C@@](C)(C(=O)O)CC[C@]5(C)CC[C@]43C)[C@@]2(C)CC[C@@H]1OC(=O)CCC(=O)O (stereo partly drawn)
Result block: Yes

---

- assay notes: chemical genetic growth profiling, strain panel (AID 1159580);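 further: tested at 20 µM; growth read once vehicle control cultures reached saturation at 30 °C; 1 = growth at the plate median or of vehicle wells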
- conditions: S. cerevisiae deletion strains, growth OD, locus YJL115W, strain asf1
Out of some 5,500 compounds screened, about 2,000 (36%) were called active. Inconclusive results (about 18%) are left out. Cut-off read from the data, not from the text of the source: active = normalized growth mostly below about 0.91 (no sharp cut-off); inconclusive = no clear call, values can overlap the other calls; inactive = mostly above about 0.92. Some of the results follow.
A correct response names exactly one class from active, inactive

# count of solved cases: 5
• CC(C)N(C(=O)CCl)c1ccccc1 = inactive
• c1ccc(CN(CC2=NCCN2)c2ccccc2)cc1 = inactive
• CCC1(c2ccc(N)cc2)CCC(=O)NC1=O (configuration not stated) = inactive
• O=c1ccc2cc(O)c(O)cc2o1 = inactive
• CNc1ccccc1C(=O)N1CCc2c([nH]c3ccccc23)C1=O = inactive

Query block: For `CC(=O)CC(=O)CCC(=O)O` , which call appears in the assay record?
Result block: inactive

Query block: How was `COc1ccc2c(c1)OC[C@@H](Cc1ccc(OC)c(OC)c1)[C@@H]2O` classified in this test?
Result block: inactive

Query block: Returns: the outcome recorded for COc1cc2c(cc1OC)C(=O)C(CC1CCN(Cc3ccccc3)CC1)C2 (configuration not stated) in this assay.
Result block: inactive

Query block: Could you please tell me the result logged for COC(=O)[C@@H]1C(O)CC[C@H]2CN3CCc4c([nH]c5ccccc45)[C@@H]3C[C@@H]21 (some centres not stated) in this assay?
Result block: inactive

Query block: Just curious, what result did CCC1(C)CC(=O)NC1=O (configuration not stated) get here?
Result block: inactive

Query block: Would you mind telling me which call this test gave `COc1ccc2c(c1)OC[C@@H](Cc1ccc(OC)c(OC)c1)[C@H]2O` ?
Result block: inactive

Query block: Entry `CCCCCCCCCCCCC[N+](C)(C)Cc1ccccc1` : call = ?
Result block: active

---

Listing of entries alongside the reported normalized growth.
- assay notes: chemical genetic growth profiling, strain panel (AID 1159580);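 further: tested at 20 µM; growth read once vehicle control cultures reached saturation at 30 °C; 1 = growth at the plate median or of vehicle wells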
- conditions: S. cerevisiae deletion strains, growth OD, locus YDR159W, strain sac3, active compounds read low
The campaign covered roughly 5,500 compounds. About 2,000 (36%) were called active. Not shown: some 18% with an inconclusive outcome. The list shows a part of the results.
A bare number is all that is needed in reply.

- C[N+](C)(C)CC(=O)[O-]: 0.978

Query block: Which normalized growth is reported for this molecule? `COc1ccc2cc1Oc1ccc(cc1)C[C@H]1c3c(cc4c(c3Oc3cc5c(cc3OC)CCN(C)[C@@H]5C2)OCO4)CCN1C`
Result block: 0.875

Query block: What does the data say about its normalized growth? Entry: `OC(CCN1CCCCC1)(c1ccccc1)c1ccccc1`
Result block: 1.01

Query block: Which normalized growth value is on record for `C[C@@H]1O[C@@H](O[C@H]2[C@@H](Oc3cc(O)c4c(c3)O[C@H](c3ccc(O)cc3)CC4=O)O[C@H](CO)[C@@H](O)[C@@H]2O)[C@H](O)[C@H](O)[C@H]1O` ?
Result block: 0.978

Query block: normalized growth lookup needed for `CCCCOc1ccc(OCCCN2CCOCC2)cc1` , thanks.
Result block: 0.943

Query block: Fill blank: measured normalized growth of the molecule `CCCCOc1ccc(C(=O)CCN2CCCCC2)cc1` is ____.
Result block: 0.913

Query block: Entry `CCOC(=O)c1ncn2c1CN(C)C(=O)c1cc(F)ccc1-2` : reported normalized growth = ?
Result block: 1.03

Query block: Recorded normalized growth of `O=C(O)c1cc(=O)c2ccc(Cl)cc2[nH]1` , please.
Result block: 0.998

Query block: # get_value(readout='normalized growth', item= `CCN(CC)C(=S)SSC(=S)N(CC)CC` )
Result block: 0.0932
